# Experiment description: HepG2 cytotoxicity, primary screen, cytotoxicity control for P. falciparum antimalarial project, cell-based, ATP luminescence (AID 2303);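 also: 0% = DMSO wells and 100% = digitonin-killed cells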
# Experimental conditions: HepG2 viability, 24-48 h, at 10 µM, active compounds read high
Readout kind: inhibition (%)

{"Compound": "O=C(Nc1ccc(Cl)cc1)c1ccc(CN2CCCN(Cc3cccc(O)c3)CC2)cc1", "Readout kind": "inhibition", "Reading unit": "%", "Measured result": 52}
{"Compound": "Cc1cc(NN=Cc2ccc(Cl)cc2)c2cccc(C)c2n1", "Readout kind": "inhibition", "Reading unit": "%", "Measured result": -1}
{"Compound": "c1ccc(-c2cc(NCCCCCCCCNc3cc(-c4ccccc4)nc4ccccc34)c3ccccc3n2)cc1", "Readout kind": "inhibition", "Reading unit": "%", "Measured result": 36}
{"Compound": "NCC1CCCN1Cc1cccc(-c2ccc(-c3nc4ccc(C(F)(F)F)cc4[nH]3)cc2)c1 (centres undefined)", "Readout kind": "inhibition", "Reading unit": "%", "Measured result": 20}
{"Compound": "COc1ccccc1C1CCN(C2CCC(NC(=O)/C=C/c3ccc(C(F)(F)F)cc3)CC2)CC1 (centres undefined)", "Readout kind": "inhibition", "Reading unit": "%", "Measured result": 57}
{"Compound": "COc1ccc2nccc([C@@H](O)CN3CCC(NC(=O)c4ccc5nc(-n6cccc6)sc5c4)CC3)c2c1", "Readout kind": "inhibition", "Reading unit": "%", "Measured result": 26}
{"Compound": "CCCCN(CCCC)CCCN(CCCN(CCCC)CCCC)c1cc(C)nc(Nc2ccc3cc(Br)ccc3c2)n1", "Readout kind": "inhibition", "Reading unit": "%", "Measured result": 52}
{"Compound": "Cc1[nH]c(C)c(-c2ccc(-c3ccc4c(c3)OCO4)nc2)c(=O)c1Br", "Readout kind": "inhibition", "Reading unit": "%", "Measured result": -6}
{"Compound": "COc1ccc(NC(=O)NC2CCN(c3ccnc4cc(Cl)ccc34)CC2)cc1", "Readout kind": "inhibition", "Reading unit": "%", "Measured result": 5}

----------
Listed next: entries and their corresponding inhibition.
# System: L-lactate dehydrogenase (Plasmodium falciparum (isolate CDC / Honduras)) (UniProt Q27743)
# Sequence (Q27743 whole entry, looked up): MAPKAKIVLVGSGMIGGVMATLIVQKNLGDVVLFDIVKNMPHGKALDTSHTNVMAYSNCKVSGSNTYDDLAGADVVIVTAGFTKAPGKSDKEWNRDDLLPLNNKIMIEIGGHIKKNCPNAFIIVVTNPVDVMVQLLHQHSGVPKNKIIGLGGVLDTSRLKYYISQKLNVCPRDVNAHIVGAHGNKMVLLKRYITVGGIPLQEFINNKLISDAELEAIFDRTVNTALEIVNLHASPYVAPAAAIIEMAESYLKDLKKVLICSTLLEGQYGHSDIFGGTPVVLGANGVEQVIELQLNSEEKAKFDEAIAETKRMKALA
# Experiment description: PfLDH activity inhibition – cell lysate, 3D7 strain, counter-screen for P. falciparum growth inhibition project (AID 2304);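 also: 0% = vehicle and 100% = reference inhibitor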
# Experimental conditions: P. falciparum 3D7 crude extract, LDH APAD/NBT absorbance; at 2 µM; active compounds read high

{"Compound": "C=C[C@]1(C)C[C@@H](OC(=O)CNC[C@@H](O)CN2C[C@H](c3ccnc4ccc(OC)nc34)OC2=O)[C@]2(C)[C@H](C)CC[C@]3(CCC(=O)[C@H]32)[C@@H](C)[C@@H]1O", "inhibition, %": -3}
{"Compound": "Cc1cccc2[nH]c(-c3cccc(-c4cccc(C(=O)NCCc5cn(C)cn5)c4)c3)nc12", "inhibition, %": 8}
{"Compound": "O=c1cc(NCCCNCc2sc(Br)nc2Br)[nH]c2ccccc12", "inhibition, %": -2}
{"Compound": "CCN(CCNC(=O)Nc1cc(C(F)(F)F)cc(C(F)(F)F)c1)c1cccc(C)c1", "inhibition, %": 4}
{"Compound": "CC(=O)N1CCC(C(=O)Nc2ccc(-c3cccc(-c4nc5ccc(C(F)(F)F)cc5[nH]4)c3)cc2)CC1", "inhibition, %": -9}
{"Compound": "Cc1cc(Nc2cccc(C(F)(F)F)c2)nc(NCc2ccccc2)n1", "inhibition, %": 0}
{"Compound": "O=C(NCc1ccc(C(=O)NC2CCCCCC2)cc1)c1ccc(O)c(-c2ccc(Cl)c(Cl)c2)c1", "inhibition, %": -3}
{"Compound": "COc1ccc(-c2ccc(NC(=O)c3cccc(Cl)c3)cc2)cc1CN(C)CCN(C)C", "inhibition, %": -3}
{"Compound": "O=c1c(NCCCN(Cc2ccc(F)cc2)c2ccccn2)c(NCc2ccncc2)c1=O", "inhibition, %": 3}
{"Compound": "Cc1cccc2[nH]c(-c3ccc(-c4ccc(CNCCN5CCNCC5)cc4)s3)nc12", "inhibition, %": 3}
{"Compound": "COc1ccc(CCN(Cc2cccs2)C(=O)c2cc3sccc3n2C)cc1OC", "inhibition, %": 1}
{"Compound": "CN(C)CCNCc1ccc(-c2cccc(-c3nc4ccccc4[nH]3)c2)cc1", "inhibition, %": 6}
{"Compound": "COc1cccc(-c2cc(-c3ccc(NC(=O)c4ccccc4)cc3)c3c(N)ncnc3n2)c1", "inhibition, %": 0}
{"Compound": "Oc1ccc(Br)cc1C(O)CNCc1ccccc1OCc1ccccc1 (stereo not drawn)", "inhibition, %": 4}
{"Compound": "Cc1ccc2cc(C3NC(=O)c4ccccc4N3)c(Cl)nc2c1 (stereo not drawn)", "inhibition, %": 1}
{"Compound": "O=C(Nc1ccccc1Br)N[C@@H]1CCN(c2ccnc3ccccc23)C1", "inhibition, %": 2}
{"Compound": "O=C(Nc1ccc2c(c1)CCN(C1CCC1)CC2)c1ccc(-c2cn3ccccc3n2)cc1", "inhibition, %": 2}
{"Compound": "CN(C)CCN1CCN(Cc2cccc(-c3csc(-c4nc5ccccc5[nH]4)c3)c2)CC1", "inhibition, %": -5}
{"Compound": "O=C(Nc1ccc(C2=NC3CCCCC3N2)cc1)Nc1ccc(C2=NC3CCCCC3N2)cc1 (stereo not drawn)", "inhibition, %": 0}
{"Compound": "Cc1cnc(CN(Cc2ccc(-c3ccc(CNCCc4ccc(S(C)(=O)=O)cc4)cn3)cc2)C(=O)c2ccc([N+](=O)[O-])c(C)c2)cn1", "inhibition, %": 4}
{"Compound": "COC(=O)C(c1ccc(NC(=O)[C@H](CC(C)C)NC(=O)OC(C)(C)C)cc1)c1ccc(NC(=O)[C@H](CC(C)C)NC(=O)OC(C)(C)C)cc1", "inhibition, %": 2}
{"Compound": "CCCCCCCN(CCCCCCC)CCNc1cc(C)nc2ccccc12", "inhibition, %": -2}
{"Compound": "c1cc(C2=N[C@H]3CCCC[C@@H]3N2)ccc1OCCCOc1ccc(C2=N[C@@H]3CCCC[C@H]3N2)cc1", "inhibition, %": -3}
{"Compound": "Cc1cc(C(=O)NC2CCN(Cc3ccccc3)CC2)ccc1-c1nc2cc(Cl)c(Cl)cc2[nH]1", "inhibition, %": 0}
{"Compound": "Cc1cccc2[nH]c(-c3ccc(-c4cccc(CN5CCN(CCO)CC5)c4)cc3)nc12", "inhibition, %": -3}
{"Compound": "OCCOCn1cnc2cnc(N[C@H]3OC[C@H](O)[C@@H](O)[C@@H]3O)nc21", "inhibition, %": 0}
{"Compound": "CC(C)(C)c1cc(C(=O)Nc2ccc(C(=N)N)cc2)c(O)c(C(C)(C)C)c1", "inhibition, %": -2}
{"Compound": "Cc1cc(N[C@@H](Cc2ccccc2)C(=O)NC2CCCC2)nc(NCc2ccccc2C)n1", "inhibition, %": 3}
{"Compound": "COc1ccc(N2CCN(CCCCNC(=O)c3ccc(NC(=O)c4ccc(Cl)c(Cl)c4)cc3)CC2)c(OC)c1", "inhibition, %": 4}
{"Compound": "COc1ccccc1C1CCN(C2CCC(NC(=O)/C=C/c3cc(F)cc(C(F)(F)F)c3)CC2)CC1 (stereo not drawn)", "inhibition, %": -1}
{"Compound": "O=C(CCC1CCCCC1=O)c1ccccc1 (stereo not drawn)", "inhibition, %": -4}
{"Compound": "CCCCCCCNCc1c(O)ccc2c(CNCCCCCCC)c(O)ccc12", "inhibition, %": -3}
{"Compound": "NC1=NC(Cc2ccccc2)N(c2ccc(Cl)cc2)C(N)=N1 (stereo not drawn)", "inhibition, %": -2}
{"Compound": "COC(=O)c1ccc(OCC(C)NCC(O)c2cccc(C(F)(F)F)c2)cc1 (stereo not drawn)", "inhibition, %": -2}
{"Compound": "Cc1cc(F)ccc1N(c1nc(-c2cc(Cl)ccc2Cl)cs1)C1CCNC1 (stereo not drawn)", "inhibition, %": 0}
{"Compound": "Cc1cc(-c2cnc(N)c(-c3ccc(N4CCN(C)CC4)cc3)c2)cc(C)c1O", "inhibition, %": -5}
{"Compound": "O=C(Cc1cnc[nH]1)Nc1ccc(-c2ccc(-c3nc4ccccc4[nH]3)s2)cc1", "inhibition, %": 1}
{"Compound": "CCOc1cc(Cc2cnc(N)nc2N)cc(OC)c1OC", "inhibition, %": -1}
